// reported %Inh for each item listed
- Tested on: CAMK1B
- run_parameters: concentration: 1 μM, replicates: in singlicate; n = 1;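 further: KINOMEscan kinase panel screen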
// units = %; emit number, no label

1. CCc1ccc(-c2ccc3c(c2)-c2c(cnn2C)S(=O)(=O)N3C)cc1 0

q: Any idea what %Inh was measured for COCCOCCOc1cc2ncc3c4ccc(C#N)cc4[nH]c3c2cc1OC ?
a: 14

q: // query: COc1ccc(-c2coc3ccc(-c4nnc(SCc5ccc(OC)c(C(F)(F)F)c5)o4)cc23)cc1
a: 8

q: // query: O=C(Nc1n[nH]c2cc(-c3ccoc3)ccc12)C1CC1
a: 0

q: // query: CC(=O)Nc1nc2cnc(Nc3cc(NC(=O)c4cccc(C5(C#N)CC5)c4Cl)ccc3C)nc2s1
a: 0

q: // query: Cc1cccc(Nc2nc(N[C@H]3CCNC3)ncc2C(N)=O)c1.Cl
a: 68

q: // query: CSc1cccc2c(-c3ccncn3)c(-c3ccc(F)cc3)nn12
a: 0

q: // query: O=C(O)C(F)(F)F.O=C(O)C(F)(F)F.O=c1[nH]ccc2nc(N[C@@H]3CCCNC3)nc(Nc3ccc(S(=O)(=O)N4CCOCC4)cc3)c12
a: 100

q: // query: CCCCc1nn2ncccc2c1-c1ccnc(Nc2ccc(N3CCN(C)CC3)cc2)n1
a: 25

----------
// reported %Inh for each item listed
- Tested on: DAPK2
- run_parameters: concentration: 1 μM, replicates: in singlicate; n = 1
Include the unit after the number when you answer.

Please review the entries below; each comes with its answer.
compound	reported
COc1cc2c(cc1OCCN1CCNCC1)ncc1c3ccc(C#N)cc3[nH]c21	4%
Cl.c1ccc(-c2ccc3c(Nc4ccc5[nH]ccc5c4)ccnc3c2)nc1 [GW440138]	0%
Cl.Cl.NCC(NC(=O)c1cc(-c2ccccc2)c(-c2ccnc3[nH]ccc23)s1)c1ccccc1 (centres unmarked) [GSK1321561]	3%
CCn1c(-c2nonc2N)nc2c(C#CC(C)(C)O)nc(OC[C@H](N)c3ccccc3)cc21 [GSK943949]	3%
c1ccc(Oc2ccc(Nc3ccnc4cc(-c5ccc(CNCCN6CCOCC6)o5)ccc34)cc2)nc1 [GW567145]	2%

q: Any idea what %Inh was measured for COC(=O)Nc1nc2ccc(Oc3ccc(NC(=O)Nc4cc(C(F)(F)F)ccc4F)cc3)cc2n1C.Cl [GW692089] ?
a: 0%

q: // query: O=C(NC1CCN(c2ccnc(Nc3ccc(F)cc3)n2)C1)c1cc2ccccc2s1 (centres unmarked) [GSK1379716]
a: 15%

q: // query: Cl.Cl.NCC(NCc1ccc(-c2ccnc3[nH]ccc23)s1)c1ccccc1 (centres unmarked) [GSK1321565]
a: 32%

----------
- Test system: NEK5
- run_parameters: concentration: 1 μM, replicates: in singlicate; n = 1
// reported %Inh for each item listed
// units = %; emit number, no label

Please review the entries below; each comes with its answer.
compound	reported
FC(F)(F)c1ccc(/C=C/c2cncnc2Nc2ccc3[nH]c(Cc4ccccc4)nc3c2)cc1 [GW709199]	23
COc1cc(Nc2nccc(-c3c(-c4cccc(NC(=O)c5c(F)cccc5F)c4)nn4ccccc34)n2)cc(OC)c1OC [GSK323521]	22
O=C(Nc1cccc(-c2nn3ccccc3c2-c2ccnc(Nc3cccc(F)c3)n2)c1)c1c(F)ccc(F)c1Cl [GSK357952]	0
NCCCC(NC(=O)c1cc(Br)c(-c2ccnc3[nH]ccc23)s1)c1ccccc1.O=C(O)C(F)(F)F.O=C(O)C(F)(F)F (centres unmarked) [GSK1287544]	88

q: Any idea what %Inh was measured for CSc1cccc2c(-c3ccncn3)c(-c3ccc(F)cc3)nn12 [GW514786] ?
a: 7

q: // query: CC(=O)Nc1nc2cnc(Nc3cc(NC(=O)c4cccc(C5(C#N)CC5)c4Cl)ccc3C)nc2s1
a: 0

q: // query: CN1CCN(Cc2cccc(-c3ccc4c(Nc5ccc(Oc6ccccc6)cc5)ccnc4c3)c2)CC1 [GW578342]
a: 0

q: // query: CC(C)(C)c1ccc2nccc(Nc3cccc(O)c3)c2c1 [GW856795]
a: 0
